# System: HOP-62
# Assay method text: relative viability (nuclei count vs DMSO), 5 days (fraction); higher = more cells survive
# Test context: first compound 0.02 µM

- Compound: "CN1CCN(CCOc2cc(OC3CCOCC3)c3c(Nc4c(Cl)ccc5c4OCO5)ncnc3c2)CC1 [Saracatinib] + CC(=O)Nc1cccc(-n2c(=O)n(C3CC3)c(=O)c3c(Nc4ccc(I)cc4F)n(C)c(=O)c(C)c32)c1 [Trametinib] (partner 0.02 µM)"
  Target or test system: "HOP-62"
  relative viability: 0.412

###

# Test system: NCI-H2009
# Assay method text: relative viability (nuclei count vs DMSO), 5 days (fraction); higher = more cells survive
# Test context: first compound 6.325 µM
The label is Met for relative viability below 0.4 and Not met for relative viability equal to or exceeding 0.4.

- Molecule: "Cc1csc(=NC2CCCCC2)n1/N=C/c1ccc(O)c(O)c1O [MIM1] + Nc1ncn([C@H]2C[C@H](O)[C@@H](CO)O2)c(=O)n1 [Decitabine] (partner 2 µM)"
  Group: "Met"
- Molecule: "Cc1csc(=NC2CCCCC2)n1/N=C/c1ccc(O)c(O)c1O [MIM1] + N=C(N)NC(=N)NCCc1ccccc1 [Phenformin] (partner 250 µM)"
  Group: "Met"
- Molecule: "Cc1csc(=NC2CCCCC2)n1/N=C/c1ccc(O)c(O)c1O [MIM1] + Nc1nc2[nH]cc(CCc3ccc(C(=O)N[C@@H](CCC(=O)O)C(=O)O)cc3)c2c(=O)[nH]1 [Pemetrexed] (partner 0.2 µM)"
  Group: "Not met"
- Molecule: "Cc1csc(=NC2CCCCC2)n1/N=C/c1ccc(O)c(O)c1O [MIM1] + O=C(CCCCCCC(=O)Nc1ccccc1)NO [Vorinostat] (partner 1 µM)"
  Group: "Not met"
- Molecule: "Cc1csc(=NC2CCCCC2)n1/N=C/c1ccc(O)c(O)c1O [MIM1] + COc1cccc2cc(-c3nc([C@H]4CC[C@H](C(=O)O)CC4)n4ncnc(N)c34)[nH]c12 [OSI-027] (partner 0.5 µM)"
  Group: "Not met"

###

# Tested on: NCI-H1793
# Assay method text: relative viability (nuclei count vs DMSO), 5 days (fraction); higher = more cells survive
# Test context: first compound 2 µM
Could you please mark Satisfied for values of relative viability below 0.6 and Not satisfied for values at or above it?

- Compound: "CN1CCN(CCOc2cc(OC3CCOCC3)c3c(Nc4c(Cl)ccc5c4OCO5)ncnc3c2)CC1 [Saracatinib] + Cc1nc(Nc2ncc(C(=O)Nc3c(C)cccc3Cl)s2)cc(N2CCN(CCO)CC2)n1 [Dasatinib] (partner 0.075 µM)"
  Group: "Satisfied"
- Compound: "Cc1csc(=NC2CCCCC2)n1/N=C/c1ccc(O)c(O)c1O [MIM1] + CS(=O)(=O)CCNCc1ccc(-c2ccc3ncnc(Nc4ccc(OCc5cccc(F)c5)c(Cl)c4)c3c2)o1 [Lapatinib] (partner 2 µM)"
  Group: "Not satisfied"
- Compound: "Cc1csc(=NC2CCCCC2)n1/N=C/c1ccc(O)c(O)c1O [MIM1] + COc1cc2c(Oc3ccc(NC(=O)C4(C(=O)Nc5ccc(F)cc5)CC4)cc3F)ccnc2cc1OCCCN1CCOCC1 [Foretinib] (partner 0.25 µM)"
  Group: "Not satisfied"
- Compound: "Cc1csc(=NC2CCCCC2)n1/N=C/c1ccc(O)c(O)c1O [MIM1] + COc1cccc2cc(-c3nc([C@H]4CC[C@H](C(=O)O)CC4)n4ncnc(N)c34)[nH]c12 [OSI-027] (partner 0.5 µM)"
  Group: "Satisfied"
- Compound: "CN1CCN(CCOc2cc(OC3CCOCC3)c3c(Nc4c(Cl)ccc5c4OCO5)ncnc3c2)CC1 [Saracatinib] + Cc1nc(NC(=O)N2CCC[C@H]2C(N)=O)sc1-c1ccnc(C(C)(C)C(F)(F)F)c1 [Alpelisib] (partner 2 µM)"
  Group: "Not satisfied"
- Compound: "CN1CCN(CCOc2cc(OC3CCOCC3)c3c(Nc4c(Cl)ccc5c4OCO5)ncnc3c2)CC1 [Saracatinib] + Nc1nc2[nH]cc(CCc3ccc(C(=O)N[C@@H](CCC(=O)O)C(=O)O)cc3)c2c(=O)[nH]1 [Pemetrexed] (partner 0.2 µM)"
  Group: "Satisfied"
- Compound: "Cc1csc(=NC2CCCCC2)n1/N=C/c1ccc(O)c(O)c1O [MIM1] + CC(=O)Nc1cccc(-n2c(=O)n(C3CC3)c(=O)c3c(Nc4ccc(I)cc4F)n(C)c(=O)c(C)c32)c1 [Trametinib] (partner 0.02 µM)"
  Group: "Satisfied"
- Compound: "Cc1csc(=NC2CCCCC2)n1/N=C/c1ccc(O)c(O)c1O [MIM1] + NC(=O)Nc1cc(-c2cccc(F)c2)sc1C(=O)N[C@H]1CCCNC1 [AZD7762] (partner 0.2 µM)"
  Group: "Satisfied"

All values here come from the supplement of paper PMC10307832.
